Collected log10 IC50 values appear next to each entry.
# tested.system: protein-protein interaction between Kras and SOS1 (biotin-tagged human Kras loaded with GDP, His-tagged human SOS1) (Homo sapiens (Human), UniProt P01116, G12D)
# protocol.text: Protein-protein interaction inhibition between Kras and SOS1 (KrasG12D-SOS PPI) using AlphaScreen;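 further: kras produced in E. coli, Ni-coupled donor beads and streptavidin acceptor beads, excitation 680 nm with emission detected at 520–620 nm via singlet oxygen transfer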
# Assay type: biochemical
# condition.set: AlphaScreen; biotin-tagged human Kras loaded with GDP, His-tagged human SOS1; read-out: KRAS G12D-SOS PPI IC50
Numbered stars: 1 amine (or outer) side, 2 acyl side, 3 side chain; on linkers, the order of the positions; unused ones are H or OH. Bridge positions count the residues as written; N and C are the ends. Square brackets hold non-standard residues; d marks the D form. Peptide text beside a SMILES is read from it. * marks the point of attachment. hPhe(3,5-F2-4-CF3) = N[C@@H](CCc1cc(F)c(C(F)(F)F)c(F)c1)C(=O)O; hPhe(3-Cl-4-CF3) = N[C@@H](CCc1ccc(C(F)(F)F)c(Cl)c1)C(=O)O; hPhe(3-F,4-CF3) = N[C@@H](CCc1ccc(C(F)(F)F)c(F)c1)C(=O)O; X111 = CN([C@@H](CCC1CCOCC1)C(=O)[*:2])[*:1]; NMePhe(4-Me) = CN[C@@H](Cc1ccc(C)cc1)C(=O)O; hPhe(3-Cl) = N[C@@H](CCc1cccc(Cl)c1)C(=O)O; NMedβ3hAla = C[C@H](CC(=O)[*:2])N(C)[*:1]; NMeGly(cPent) = CN[C@H](C(=O)O)C1CCCC1; NMeCha = CN[C@@H](CC1CCCCC1)C(=O)O; Hyp = O=C(O)[C@@H]1C[C@@H](O)CN1; NMeCba = CN[C@@H](CC1CCC1)C(=O)O; NMeChg = CN[C@H](C(=O)O)C1CCCCC1; NMeI = CC[C@H](C)[C@H](NC)C(=O)O; NMeD = CN[C@@H](CC(=O)O)C(=O)O; NMeL = CN[C@@H](CC(C)C)C(=O)O; NMeV = CN[C@H](C(=O)O)C(C)C; NMeS = CN[C@@H](CO)C(=O)O; Morpholide = C1CN(*)CCO1; NMeA = CN[C@@H](C)C(=O)O; NMeAib = CNC(C)(C)C(=O)O; Piperidide = C1CCN(*)CC1; Ac5c = NC1(C(=O)O)CCCC1; Aze = O=C(O)[C@@H]1CCN1; CH2CMe2OH = CC(C)(O)C*; Sar = CNCC(=O)O; Propyl = CCC*
Each number you see is log10 of IC50, and the unit inside the log is nM.

>  <molecule>
CC[C@H](C)[C@@H]1NC(=O)[C@H](CC(C)C)N(C)C(=O)C[C@@H](C(=O)N2CCCCC2)N(C)C(=O)[C@H]([C@@H](C)CC)N(C)C(=O)C2(CCCC2)NC(=O)[C@@H]2CCCN2C(=O)[C@H](CCc2ccc(C(F)(F)F)c(Cl)c2)NC(=O)CN(C)C(=O)[C@H](Cc2ccc(C)cc2)N(C)C(=O)[C@@H]2CCN2C(=O)[C@H](C)N(C)C1=O [Compound 1727] ([NMeL]I[NMeA][Aze][NMePhe(4-Me)][Sar][hPhe(3-Cl-4-CF3)]P[Ac5c][NMeI][NMeD]-Piperidide; lactam N-11)

>  <log10 IC50>
0.08

$$$$
>  <molecule>
CC[C@H](C)[C@@H]1NC(=O)[C@H](CC(C)C)N(C)C(=O)C[C@@H](C)N(C)C(=O)[C@H](CC(C)C)NC(=O)C(C)(C)N(C)C(=O)[C@H](CC(C)C)NC(=O)[C@H](CCc2ccc(C(F)(F)F)c(F)c2)NC(=O)CN(C)C(=O)[C@H](CC2CCCCC2)N(C)C(=O)CN(C)C(=O)CN(C)C1=O [Compound 883] (cyclo(I[Sar][Sar][NMeCha][Sar][hPhe(3-F,4-CF3)]L[NMeAib]L[NMedβ3hAla][NMeL]))

>  <log10 IC50>
1.69

$$$$
>  <molecule>
CCCOC[C@H]1C(=O)N(C)CC(=O)N[C@@H](CCc2ccc(C(F)(F)F)c(F)c2)C(=O)N2CCC[C@H]2C(=O)NC2(CCCC2)C(=O)N(C)[C@@H]([C@@H](C)CC)C(=O)N(C)[C@H](C(=O)N2CCOCC2)CC(=O)N(C)[C@@H](CC(C)C)C(=O)N[C@@H]([C@@H](C)CC)C(=O)N(C)[C@@H](C)C(=O)N2CC[C@H]2C(=O)N1C [Compound 827] ([NMeL]I[NMeA][Aze][NMeS](Propyl)[Sar][hPhe(3-F,4-CF3)]P[Ac5c][NMeI][NMeD]-Morpholide; lactam N-11)

>  <log10 IC50>
0.45

$$$$
>  <molecule>
CC[C@H](C)[C@@H]1NC(=O)[C@H](CC(C)C)N(C)C(=O)C[C@@H](C(=O)N2CCCCC2)N(C)C(=O)[C@H](C2CCCCC2)N(C)C(=O)C2(CCCC2)NC(=O)[C@H](COCC(C)(C)O)N(C)C(=O)[C@H](CCc2ccc(C(F)(F)F)c(Cl)c2)NC(=O)CN(C)C(=O)[C@H](CC2CCCCC2)N(C)C(=O)CN(C)C(=O)CN(C)C1=O [Compound 789] ([NMeL]I[Sar][Sar][NMeCha][Sar][hPhe(3-Cl-4-CF3)][NMeS](CH2CMe2OH)[Ac5c][NMeChg][NMeD]-Piperidide; lactam N-11)

>  <log10 IC50>
-0.21

$$$$
>  <molecule>
CC[C@H](C)[C@@H]1NC(=O)[C@H](C)N(C)C(=O)C[C@@H](C(=O)N2CCCCC2)N(C)C(=O)[C@H](C(C)C)N(C)C(=O)C2(CCCC2)NC(=O)[C@@H]2CCCN2C(=O)[C@H](CCc2cccc(Cl)c2)NC(=O)CN(C)C(=O)[C@H](CC2CCCCC2)N(C)C(=O)[C@@H]2CCN2C(=O)[C@H](C)N(C)C1=O [Compound 625] ([NMeA]I[NMeA][Aze][NMeCha][Sar][hPhe(3-Cl)]P[Ac5c][NMeV][NMeD]-Piperidide; lactam N-11)

>  <log10 IC50>
1.85

$$$$

(Q) # query: log10 IC50 of entry CCO[C@@H]1C[C@H]2C(=O)NC3(CCCC3)C(=O)N(C)[C@@H](C3CCCC3)C(=O)N(C)[C@H](C(=O)N3CCOCC3)CC(=O)N(C)[C@@H](CC(C)C)C(=O)N[C@@H]([C@@H](C)CC)C(=O)N(C)[C@@H](C)C(=O)N3CC[C@H]3C(=O)N(C)[C@@H](CC3CCCCC3)C(=O)N(C)CC(=O)N[C@@H](CCc3cc(F)c(C(F)(F)F)c(F)c3)C(=O)N2C1 [Compound 1250] ([NMeL]I[NMeA][Aze][NMeCha][Sar][hPhe(3,5-F2-4-CF3)][Hyp](Et)[Ac5c][NMeGly(cPent)][NMeD]-Morpholide; lactam N-11)
(A) -0.20

(Q) # query: log10 IC50 of entry CC[C@H](C)[C@@H]1NC(=O)[C@H](CC(C)C)N(C)C(=O)C[C@@H](C(=O)N2CCCCC2)N(C)C(=O)[C@H](C2CCCCC2)N(C)C(=O)C2(CCCC2)NC(=O)[C@H](CCC2CCOCC2)N(C)C(=O)[C@H](CCc2ccc(C(F)(F)F)c(Cl)c2)NC(=O)CN(C)C(=O)[C@H](CC2CCCCC2)N(C)C(=O)CN(C)C(=O)CN(C)C1=O [Compound 2048] ([NMeL]I[Sar][Sar][NMeCha][Sar][hPhe(3-Cl-4-CF3)][X111][Ac5c][NMeChg][NMeD]-Piperidide; lactam N-11)
(A) 0.54

(Q) # query: log10 IC50 of entry CC[C@H](C)[C@@H]1NC(=O)[C@H](C)N(C)C(=O)C[C@@H](C)N(C)C(=O)[C@H](CC2CCC2)N(C)C(=O)C(C)(C)N(C)C(=O)[C@@H]2CCCN2C(=O)[C@H](CCc2ccc(C(F)(F)F)c(Cl)c2)NC(=O)CN(C)C(=O)[C@H](CC2CCCCC2)N(C)C(=O)[C@@H]2CCN2C(=O)[C@H](C)N(C)C1=O [Compound 2152] (cyclo([Aze][NMeCha][Sar][hPhe(3-Cl-4-CF3)]P[NMeAib][NMeCba][NMedβ3hAla][NMeA]I[NMeA]))
(A) 1.85

(Q) # query: log10 IC50 of entry CC[C@H](C)[C@@H]1NC(=O)[C@H](CC(C)C)N(C)C(=O)C[C@@H](C(=O)N2CCOCC2)N(C)C(=O)[C@H](C2CCCC2)N(C)C(=O)C2(CCCC2)NC(=O)[C@@H]2CCCN2C(=O)[C@H](CCc2cc(F)c(C(F)(F)F)c(F)c2)NC(=O)CN(C)C(=O)[C@H](C2CCCC2)N(C)C(=O)[C@@H]2CCN2C(=O)[C@H](C)N(C)C1=O [Compound 1336] ([NMeL]I[NMeA][Aze][NMeGly(cPent)][Sar][hPhe(3,5-F2-4-CF3)]P[Ac5c][NMeGly(cPent)][NMeD]-Morpholide; lactam N-11)
(A) -0.18
